# measuredTarget: full-length activated BTK mutant C481S (Homo sapiens (Human), UniProt Q06187, C481S)
# Sequence (Q06187 whole entry C481S): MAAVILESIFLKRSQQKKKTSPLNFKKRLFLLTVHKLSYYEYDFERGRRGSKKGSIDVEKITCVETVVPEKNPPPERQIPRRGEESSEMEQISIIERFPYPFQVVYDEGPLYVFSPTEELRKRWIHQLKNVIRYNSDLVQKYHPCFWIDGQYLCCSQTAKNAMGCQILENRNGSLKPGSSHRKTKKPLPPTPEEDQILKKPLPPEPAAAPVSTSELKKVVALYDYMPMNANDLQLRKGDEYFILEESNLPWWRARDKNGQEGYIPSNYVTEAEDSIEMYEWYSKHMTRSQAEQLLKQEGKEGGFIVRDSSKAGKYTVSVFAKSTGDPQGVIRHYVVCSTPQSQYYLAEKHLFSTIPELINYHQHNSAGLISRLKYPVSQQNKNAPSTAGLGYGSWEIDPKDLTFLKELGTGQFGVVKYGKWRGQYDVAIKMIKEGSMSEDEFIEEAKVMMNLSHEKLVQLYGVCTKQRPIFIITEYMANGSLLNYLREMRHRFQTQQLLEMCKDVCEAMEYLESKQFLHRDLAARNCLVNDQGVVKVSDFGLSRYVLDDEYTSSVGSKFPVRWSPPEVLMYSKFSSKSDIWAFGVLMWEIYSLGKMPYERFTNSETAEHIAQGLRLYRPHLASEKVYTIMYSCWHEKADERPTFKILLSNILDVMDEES
# assayExplanation: AlphaScreen assay, BTK mutant C481S
# Format: biochemical
# conditionContext: read-out: BTK-C481S % @ 10 uM, @ 10 uM
inhibition at 10 µM reference
Output spec: scalar in %, unitless text.

Take a look at these entries with their results.
structureSmilesString	inhibition at 10 µM [%]
COCCOc1cccc(C(=O)c2c[nH]c3ncnc(N[C@@H]4CC[C@@H](CO)OC4)c23)c1	82
O=C(c1cc(C(=O)N2CCOCC2)ccc1Cl)c1c[nH]c2ncnc(N[C@@H]3CC[C@@H](CO)OC3)c12	82
COCCNC(=O)c1ccc(Cl)c(C(=O)c2c[nH]c3ncnc(N[C@@H]4CC[C@@H](CO)OC4)c23)c1	53

Query: Fill in: inhibition at 10 µM of COCCNC(=O)c1cccc(C(=O)c2c[nH]c3ncnc(N[C@@H]4CC[C@@H](CO)OC4)c23)c1 is ___
Reply: 55

Query: I am curious: what inhibition at 10 µM value has been reported for O=C(c1cccc(NC(=O)C2CCOCC2)c1)c1c[nH]c2ncnc(N[C@@H]3CC[C@@H](CO)OC3)c12 ?
Reply: 44

Query: Given COCC(=O)Nc1cccc(C(=O)c2c[nH]c3ncnc(N[C@@H]4CC[C@@H](CO)OC4)c23)c1 , state its recorded inhibition at 10 µM.
Reply: 81
